target: recombinant human CD3ε/δ heterodimer (human) (UniProt P07766); assay: ELISA, coated CD3ε/δ
Sequence (P07766 23-126, stated change not applied, chain 1 of 2): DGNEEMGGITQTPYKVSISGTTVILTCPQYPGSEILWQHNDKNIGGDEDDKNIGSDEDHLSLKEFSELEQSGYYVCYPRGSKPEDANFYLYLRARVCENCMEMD
Sequence (P04234 22-105, stated change not applied, chain 2 of 2, further chain): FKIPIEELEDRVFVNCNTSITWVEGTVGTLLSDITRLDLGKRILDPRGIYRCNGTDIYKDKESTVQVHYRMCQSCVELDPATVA
Give measured Absorbance (450 nm) for each item. Keep answers brief.
# output: bare number, no unit

Supply Absorbance (450 nm) value. Item: C10 (antibody, human IgG1, lambda, L234A L235A, V domains shown) VH: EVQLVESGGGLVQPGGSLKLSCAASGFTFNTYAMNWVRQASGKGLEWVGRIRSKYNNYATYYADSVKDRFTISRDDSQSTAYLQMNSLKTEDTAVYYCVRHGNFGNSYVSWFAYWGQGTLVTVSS VL: QAVVTQEPSLTVSPGGTVTLTCRSSTGAVTTSNYANWVQQKPGQAPRTLIYGTNKRAPWTPARFSGSLLGDKAALTLSGAQPEDEAEYYCALWYSNLWVFGGGTKLTVLG
0.096

Supply Absorbance (450 nm) value. Item: A15 (antibody, human IgG1, lambda, L234A L235A, V domains shown) VH: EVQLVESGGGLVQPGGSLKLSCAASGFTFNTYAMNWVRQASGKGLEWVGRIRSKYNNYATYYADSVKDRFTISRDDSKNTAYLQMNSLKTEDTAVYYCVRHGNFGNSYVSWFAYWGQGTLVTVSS VL: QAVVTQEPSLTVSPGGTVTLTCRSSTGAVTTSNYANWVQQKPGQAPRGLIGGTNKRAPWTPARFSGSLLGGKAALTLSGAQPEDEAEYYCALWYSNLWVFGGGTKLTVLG
2.79
